Target: human DLL3 endogenously expressed on SHP77 and NCI-H82 cells (human) (UniProt Q9NYJ7)
Sequence (Q9NYJ7 27-618): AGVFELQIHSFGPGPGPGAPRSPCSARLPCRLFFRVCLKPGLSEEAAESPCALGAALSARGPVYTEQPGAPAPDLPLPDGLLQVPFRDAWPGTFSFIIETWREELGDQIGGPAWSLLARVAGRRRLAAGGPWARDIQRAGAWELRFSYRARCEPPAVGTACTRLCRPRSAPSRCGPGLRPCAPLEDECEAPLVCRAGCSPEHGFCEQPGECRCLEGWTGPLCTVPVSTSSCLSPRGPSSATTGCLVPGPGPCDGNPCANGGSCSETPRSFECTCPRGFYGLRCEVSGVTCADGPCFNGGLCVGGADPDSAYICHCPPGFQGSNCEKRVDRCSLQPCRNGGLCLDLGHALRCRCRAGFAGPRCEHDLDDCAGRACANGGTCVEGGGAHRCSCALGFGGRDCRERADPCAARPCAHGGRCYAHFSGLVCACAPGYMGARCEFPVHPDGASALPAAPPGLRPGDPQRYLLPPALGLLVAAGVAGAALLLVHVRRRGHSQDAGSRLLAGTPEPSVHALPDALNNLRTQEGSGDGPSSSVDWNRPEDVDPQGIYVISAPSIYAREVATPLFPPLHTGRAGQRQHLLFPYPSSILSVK
Assay: FACS SHP77 cells, 0.00128 nM
Recorded MFI, one value per entry.
The reply should be a number in MFI, with the unit left off.

binder: mab012 scFv-hFc (Fc fusion, not shown: small tags and cut ends; a dimerising Fc or GST) scFv (part 1 of 2): DVLMTQTPLSLPVSLGDQASISCRSSQSIVHSDGNTYLEWYLQKPGQSPKLLIYKVSNRFSGVPDRFSGSGSGTDFTLKISRVEAEDLGFYYCFQGSHVPFTFGSGTKLEIK scFv (part 2 of 2): QVQLQQSGPELVKPGASVKISCKASGYTFTDYYIHWVKQRPGQGLEWIGWTLPGSGSPYYNEKFKGKATLTVDKSSSTAYMLLSSLTSEDSAVYFCARWHYYYGSSYHFDYWGQGTTLTVSS
unit.abbreviation: MFI
MFI: 94

Below: the item to evaluate.
Would you kindly share the measured MFI for mab007 scFv-hFc (Fc fusion, not shown: small tags and cut ends; a dimerising Fc or GST) scFv (part 1 of 2): DVQITQSPSYLAASPGETITINCRASTSISKYLAWYQERPGKTNKLLIYSGSTLQSGIPSRFRGSGSGTDFTLTISSLEPEDFAMYYCQQHHVYPYTFGGGTKLEIK scFv (part 2 of 2): QVQLQQPGAELVRPGTSVKLSCKASGYTFTSYWMHWVKQRPGQGLEWIGVIDPSDSLANYNQEFKGKATLTVDTSSSTAYMQLSSLTSEDSAVYYCARDSTVVAPMDYWGQGTSVTVSS ?
103

The reported measurements were obtained from patent EP4786492A1.
